test.target: 5-hydroxytryptamine receptor 1A (Homo sapiens) (UniProt P08908)
Sequence (whole entry): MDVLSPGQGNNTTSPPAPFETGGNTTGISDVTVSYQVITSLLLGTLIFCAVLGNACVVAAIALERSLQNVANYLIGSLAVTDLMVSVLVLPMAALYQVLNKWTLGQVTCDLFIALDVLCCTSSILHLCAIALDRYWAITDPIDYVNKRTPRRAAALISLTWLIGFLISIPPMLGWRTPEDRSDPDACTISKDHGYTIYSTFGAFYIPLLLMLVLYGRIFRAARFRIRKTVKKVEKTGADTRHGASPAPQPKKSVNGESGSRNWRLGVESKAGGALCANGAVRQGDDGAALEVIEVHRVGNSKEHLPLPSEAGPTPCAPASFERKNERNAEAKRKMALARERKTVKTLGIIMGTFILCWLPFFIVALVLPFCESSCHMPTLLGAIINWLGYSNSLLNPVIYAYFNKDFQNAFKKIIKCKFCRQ
measurement.notes: Intrinsic activity towards 5-HT1A receptor using [35S]GTP-gamma-S, binding assay
Format: functional
observation.type: Emax (%)

Answered cases to consult:
[Q] Fill in the recorded Emax for this compound, with 5-hydroxytryptamine receptor 1A (Homo sapiens) (UniProt P08908) as test system: `COc1ccccc1OCCN[C@H]1CC[C@H](c2c[nH]c3ccc(F)cc32)CC1`
[A] 80

[Q] Repeat with `COc1ccccc1N1CCN([C@H]2CC[C@@H](c3c[nH]c4ccc(F)cc43)CC2)CC1`
[A] 5

[Q] Same read-out for `COc1ccccc1N1CCN([C@H]2CC[C@H](c3c[nH]c4ccc(F)cc43)CC2)CC1` ?
[A] 29

[Q] # repeat for `Fc1ccc2[nH]cc([C@H]3CC[C@@H](NCCOc4cccc5[nH]ccc45)CC3)c2c1`
[A] 7

[Q] Moving on to the next compound: `Fc1ccc2[nH]cc([C@H]3CC[C@H](N4CCN(c5cccc6c5OCCO6)CC4)CC3)c2c1`
[A] 57

[Q] Now this one: `Fc1ccc2[nH]cc([C@H]3CC[C@@H](N4CCN(c5cccc6c5OCCO6)CC4)CC3)c2c1`
[A] 0

P = Fc1ccc2[nH]cc([C@H]3CC[C@@H](NCCOc4cccc5c4OCCO5)CC3)c2c1
Q = Fc1ccc2[nH]cc([C@H]3CC[C@H](NCCOc4cccc5[nH]ccc45)CC3)c2c1
[Q] Of the two listed items, P and Q , which carries the larger Emax figure? Select an item and report its label.
[A] Q
(Q: 59%, P: 27%)

P = COc1ccccc1OCCN[C@H]1CC[C@@H](c2c[nH]c3ccc(F)cc32)CC1
Q = Fc1ccc2[nH]cc([C@H]3CC[C@@H](NCC4COc5ccccc5O4)CC3)c2c1 (some centres undefined)
R = Fc1ccc2[nH]cc([C@H]3CC[C@H](NCC4COc5ccccc5O4)CC3)c2c1 (some centres undefined)
[Q] Would you mind ranking these compounds by ascending Emax? Use the labels to give the ranking in the order requested.
[A] P, Q, R
(P: 22%, Q: 44%, R: 94%)

====

Reported values: Ki for Sodium-dependent serotonin transporter (Rattus norvegicus), one per item.
observation.type: Ki (nM)

[Q] Quick one: Ki of `Fc1ccc2[nH]cc([C@H]3CC[C@@H](NCCOc4cccc5c4OCCO5)CC3)c2c1` ?
[A] 12.1

a = Fc1ccc2[nH]cc([C@H]3CC[C@@H](N4CCN(c5cccc6c5OCCO6)CC4)CC3)c2c1
b = Fc1ccc2[nH]cc([C@H]3CC[C@@H](NCCOc4cccc5[nH]ccc45)CC3)c2c1
c = Fc1ccc2[nH]cc([C@H]3CC[C@@H](NCC4COc5ccccc5O4)CC3)c2c1 (some centres undefined)
[Q] # desc sort on Ki across 3 compounds List the labels in the requested order.
[A] c, b, a
(c: 23.2 nM, b: 12.6 nM, a: 5.31 nM)

====

Protein target, amino acids: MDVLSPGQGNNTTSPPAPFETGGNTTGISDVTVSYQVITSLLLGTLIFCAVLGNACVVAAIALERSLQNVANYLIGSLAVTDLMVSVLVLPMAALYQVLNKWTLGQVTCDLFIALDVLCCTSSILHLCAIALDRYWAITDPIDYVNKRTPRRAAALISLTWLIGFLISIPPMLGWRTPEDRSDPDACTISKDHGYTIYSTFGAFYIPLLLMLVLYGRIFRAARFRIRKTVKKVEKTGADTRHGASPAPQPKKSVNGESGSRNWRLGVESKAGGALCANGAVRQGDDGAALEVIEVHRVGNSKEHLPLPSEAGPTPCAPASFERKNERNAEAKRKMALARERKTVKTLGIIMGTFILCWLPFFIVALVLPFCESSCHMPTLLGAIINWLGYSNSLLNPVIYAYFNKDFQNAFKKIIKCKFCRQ
observation.type: Ki (nM)

[Q] Ki lookup needed for `COc1ccccc1N1CCN([C@H]2CC[C@@H](c3c[nH]c4ccc(F)cc43)CC2)CC1` , thanks.
[A] 129

P = COc1ccccc1N1CCN([C@H]2CC[C@H](c3c[nH]c4ccc(F)cc43)CC2)CC1
Q = COc1ccccc1OCCN[C@H]1CC[C@@H](c2c[nH]c3ccc(F)cc32)CC1
[Q] Compare P and Q and name the one whose reported Ki is smaller. Returns: label corresponding to the selected item.
[A] P
(P: 14.3 nM, Q: 307 nM)

====

test.target: 5-hydroxytryptamine receptor 1A (Homo sapiens) (UniProt P08908)
measurement.notes: Intrinsic activity towards 5-HT1A receptor using [35S]GTP-gamma-S, binding assay
Assay type: functional
observation.type: Emax (%)
Use % as the unit, but write only the number.

[Q] Looking for the measured Emax of `Fc1ccc2[nH]cc([C@H]3CC[C@@H](N4CCN(c5cccc6[nH]ccc56)CC4)CC3)c2c1` , can you help?
[A] 10

Others:
[Q] For the compound shown here, `Fc1ccc2[nH]cc([C@H]3CC[C@H](NCCOc4cccc5c4OCCO5)CC3)c2c1` , give the reported Emax.
[A] 43

[Q] // repeat for `Fc1ccc2[nH]cc([C@H]3CC[C@H](N4CCN(c5cccc6[nH]ccc56)CC4)CC3)c2c1` and report
[A] 43
